These entries and their values trace back to patent US5763441A.

target: FLK-1 receptor (Mus musculus, UniProt P35918); construct: expressed in transfected cells; host or cells: NIH3T3C7#3 cells (FLK-1 infected NIH3T3); experiment: ELISA assay to measure kinase activity of FLK-1 receptor in FLK-1/NIH cells; type: cell-based, murine
Sequence (P35918 20-1345): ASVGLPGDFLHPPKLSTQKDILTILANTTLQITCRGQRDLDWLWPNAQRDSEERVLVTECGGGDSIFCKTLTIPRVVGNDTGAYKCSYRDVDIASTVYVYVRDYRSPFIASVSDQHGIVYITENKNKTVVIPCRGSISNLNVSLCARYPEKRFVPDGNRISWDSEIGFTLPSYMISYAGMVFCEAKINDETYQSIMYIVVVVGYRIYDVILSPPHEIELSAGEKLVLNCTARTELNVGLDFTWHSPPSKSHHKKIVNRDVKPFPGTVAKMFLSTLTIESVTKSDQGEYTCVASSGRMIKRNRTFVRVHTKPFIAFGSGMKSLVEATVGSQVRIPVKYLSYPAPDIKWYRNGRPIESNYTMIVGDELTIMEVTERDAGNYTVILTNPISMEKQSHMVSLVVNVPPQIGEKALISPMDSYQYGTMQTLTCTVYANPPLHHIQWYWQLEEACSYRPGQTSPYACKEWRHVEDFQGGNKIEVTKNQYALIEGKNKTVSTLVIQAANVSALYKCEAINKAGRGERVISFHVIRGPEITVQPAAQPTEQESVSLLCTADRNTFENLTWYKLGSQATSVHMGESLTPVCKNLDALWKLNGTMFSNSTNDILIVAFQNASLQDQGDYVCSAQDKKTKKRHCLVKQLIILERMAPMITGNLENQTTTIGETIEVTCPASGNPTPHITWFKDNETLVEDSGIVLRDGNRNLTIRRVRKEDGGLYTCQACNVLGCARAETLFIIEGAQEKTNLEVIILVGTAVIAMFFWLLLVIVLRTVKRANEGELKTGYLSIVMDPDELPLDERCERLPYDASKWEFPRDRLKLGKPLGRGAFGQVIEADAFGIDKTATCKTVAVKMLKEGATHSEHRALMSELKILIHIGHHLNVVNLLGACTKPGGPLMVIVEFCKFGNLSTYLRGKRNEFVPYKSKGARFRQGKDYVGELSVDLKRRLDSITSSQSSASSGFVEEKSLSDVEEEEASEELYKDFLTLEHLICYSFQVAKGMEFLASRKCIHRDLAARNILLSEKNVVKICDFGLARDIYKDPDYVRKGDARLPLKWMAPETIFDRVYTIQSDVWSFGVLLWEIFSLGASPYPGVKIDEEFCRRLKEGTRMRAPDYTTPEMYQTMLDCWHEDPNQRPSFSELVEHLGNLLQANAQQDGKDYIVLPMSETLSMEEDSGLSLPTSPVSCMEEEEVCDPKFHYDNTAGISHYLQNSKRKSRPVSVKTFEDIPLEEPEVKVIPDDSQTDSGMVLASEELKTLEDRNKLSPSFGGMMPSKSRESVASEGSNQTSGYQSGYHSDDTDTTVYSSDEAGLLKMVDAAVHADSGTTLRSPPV
Measured Quantity: IC50
Remember to put the unit after the number in your answer.

Could I get IC50 for every one of these entries?
1. Cc1cc2ncc(-c3ccc(O)c(O)c3)nc2cc1C [Compound 14]
2. N#C/C(=C\c1ccc(O)c(O)c1)C(=O)NCCCCNC(=O)/C(C#N)=C/c1ccc(O)c(O)c1 [Compound 8]
3. COC(=O)c1ccc(NCc2cc(O)ccc2O)cc1 [Compound 24]
4. N#C/C(=C\c1cc(O)c(O)c(Br)c1)S(=O)(=O)/C(C#N)=C/c1cc(O)c(O)c(Br)c1 [Compound 12]

Output line:
1. 9.3 µM
2. 10.8 µM
3. 28.9 µM
4. 7.1 µM

====

molecular target: FLK-1 receptor (Mus musculus, UniProt P35918); construct: expressed in transfected cells; host or cells: NIH3T3C7#3 cells (FLK-1 infected NIH3T3); assay: ELISA assay to measure kinase activity of FLK-1 receptor in FLK-1/NIH cells; format: cell-based, murine
Task for the reader: assign each of the following molecules its reported IC50.
Remember to put the unit after the number in your answer.

Could I get IC50 for every one of these entries?
1. CC1c2nc3ccccc3c(=O)n2C(c2ccc(O)cc2)N1Cc1ccccc1 (centres unmarked)
2. CC(C)(C)c1cc(/C=C(/C#N)c2[nH]nc(N)c2C#N)cc(C(C)(C)C)c1O
3. N#CC(C(=O)Nc1cccc(C(F)(F)F)c1)C(=S)Nc1ccccc1Cl (centres unmarked)
4. Oc1cccc(Nc2ncnc3ccccc23)c1 [Compound 18, 4-(3-hydroxyphenylamino)-quinazoline]
5. COc1cc2nc(Cl)nc(Nc3cccc(Cl)c3)c2cc1OC
6. Cc1ccc2ncnc(Nc3cccc(O)c3)c2c1
7. Cc1cc2ncc(Nc3ccc(I)cc3)nc2cc1C

Output line:
["3.4 µM", "8.9 µM", "8.5 µM", "34.6 µM", "9.9 µM", "35.1 µM", "10.4 µM"]

Could I get IC50 for every one of these entries?
1. Cc1cc2ncc(Nc3ccc(Cl)c(Cl)c3)nc2cc1C
2. CC(C)c1cc(/C=C(\C#N)C(=S)NCCCc2ccccc2)cc(C(C)C)c1O

Output line:
["15 µM", "9.8 µM"]

Could I get IC50 for every one of these entries?
1. N#C/C(=C\c1cc(O)c(O)c(I)c1)C(=O)NCc1ccccc1
2. N#CCS(=O)(=O)/C(C#N)=C/c1cc(O)c(O)c(Br)c1

Output line:
1. 21.2 µM
2. 11 µM
